Data provenance is patent US12581252B2.

# target: H1047R PIK3CA enzyme (Homo sapiens, UniProt P42336, H1047R)
# Sequence (P42336 whole entry H1047R): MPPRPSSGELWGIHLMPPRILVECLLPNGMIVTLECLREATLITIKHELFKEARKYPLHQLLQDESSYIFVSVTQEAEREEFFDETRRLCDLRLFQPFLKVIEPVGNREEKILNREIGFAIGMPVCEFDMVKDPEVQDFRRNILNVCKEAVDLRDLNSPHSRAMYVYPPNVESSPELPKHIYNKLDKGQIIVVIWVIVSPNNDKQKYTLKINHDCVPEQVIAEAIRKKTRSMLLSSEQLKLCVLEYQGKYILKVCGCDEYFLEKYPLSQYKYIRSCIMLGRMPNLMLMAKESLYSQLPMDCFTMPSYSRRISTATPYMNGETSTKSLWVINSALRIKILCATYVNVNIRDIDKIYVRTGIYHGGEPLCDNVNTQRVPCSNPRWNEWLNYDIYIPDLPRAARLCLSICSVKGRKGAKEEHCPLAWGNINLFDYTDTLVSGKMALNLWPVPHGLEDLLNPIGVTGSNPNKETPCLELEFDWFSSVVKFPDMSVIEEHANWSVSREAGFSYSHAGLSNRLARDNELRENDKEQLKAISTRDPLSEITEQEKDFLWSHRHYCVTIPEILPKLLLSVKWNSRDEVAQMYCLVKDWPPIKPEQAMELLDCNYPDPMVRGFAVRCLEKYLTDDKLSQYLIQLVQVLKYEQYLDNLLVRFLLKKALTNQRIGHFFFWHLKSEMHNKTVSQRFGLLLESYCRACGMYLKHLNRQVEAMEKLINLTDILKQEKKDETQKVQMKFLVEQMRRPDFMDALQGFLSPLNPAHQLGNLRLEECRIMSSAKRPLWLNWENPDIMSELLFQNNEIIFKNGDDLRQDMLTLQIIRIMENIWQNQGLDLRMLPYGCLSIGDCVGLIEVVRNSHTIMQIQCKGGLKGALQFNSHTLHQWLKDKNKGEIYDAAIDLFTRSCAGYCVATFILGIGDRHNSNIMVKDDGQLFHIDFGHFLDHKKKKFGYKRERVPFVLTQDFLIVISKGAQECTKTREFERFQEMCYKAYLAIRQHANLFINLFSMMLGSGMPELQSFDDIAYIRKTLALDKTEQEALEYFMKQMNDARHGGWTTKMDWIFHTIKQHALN
# Sequence (P27986 whole entry partner): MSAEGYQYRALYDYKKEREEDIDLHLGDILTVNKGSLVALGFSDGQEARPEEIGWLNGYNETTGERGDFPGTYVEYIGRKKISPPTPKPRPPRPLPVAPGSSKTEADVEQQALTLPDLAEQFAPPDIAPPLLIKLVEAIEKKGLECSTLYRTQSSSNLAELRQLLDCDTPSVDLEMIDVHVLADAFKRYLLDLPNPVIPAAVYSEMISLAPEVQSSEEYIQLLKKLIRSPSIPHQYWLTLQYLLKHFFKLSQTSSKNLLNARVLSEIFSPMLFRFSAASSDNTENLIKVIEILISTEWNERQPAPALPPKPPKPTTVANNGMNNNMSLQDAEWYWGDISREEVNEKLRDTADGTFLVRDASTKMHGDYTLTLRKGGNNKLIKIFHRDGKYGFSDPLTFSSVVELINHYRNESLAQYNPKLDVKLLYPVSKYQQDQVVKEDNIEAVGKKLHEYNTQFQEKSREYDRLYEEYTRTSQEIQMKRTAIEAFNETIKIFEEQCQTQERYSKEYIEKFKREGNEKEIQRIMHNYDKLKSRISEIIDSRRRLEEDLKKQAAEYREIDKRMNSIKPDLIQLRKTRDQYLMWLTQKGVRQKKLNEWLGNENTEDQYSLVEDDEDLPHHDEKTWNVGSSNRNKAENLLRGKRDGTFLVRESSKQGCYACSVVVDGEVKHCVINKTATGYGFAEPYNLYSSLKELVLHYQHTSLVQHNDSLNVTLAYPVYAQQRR
# assay-notes: ADP-Glo Biochemical PIK3CA Kinase Assay
pIC50: −log10 of the molar value.
quantity-kind: pIC50

Use the examples below as a reference point.
{"compound": "N#Cc1cccc(C(=O)Nc2cc(Br)cc3c2C(c2cc(F)ccc2Cl)NC3=O)c1 (stereo not drawn)", "quantity-kind": "pIC50", "observed-measurement": "5.00 to 6.00"}
{"compound": "Cc1ccc2c(c1)CCN2C(=O)Nc1cccc2c1C(c1cc(F)ccc1Cl)NC2=O (stereo not drawn)", "quantity-kind": "pIC50", "observed-measurement": "4.00 to 5.00"}
{"compound": "O=C(Nc1cc(CC2(O)CC2)cc2c1C(c1cc(F)ccc1Cl)NC2=O)c1cc(F)cc(C(F)(F)F)c1 (stereo not drawn)", "quantity-kind": "pIC50", "observed-measurement": "≥ 7.00"}
{"compound": "Cc1ccccc1C1NC(=O)c2cccc(NC(=O)c3nc(C)n4ccc(Cl)cc34)c21 (stereo not drawn)", "quantity-kind": "pIC50", "observed-measurement": "4.00 to 5.00"}
{"compound": "CS(=O)(=O)N1CCC[C@@H]1COc1cc(NC(=O)c2cc(F)cc(C(F)(F)F)c2)c2c(c1)C(=O)NC2c1cc(F)ccc1Cl (single isomer, unassigned)", "quantity-kind": "pIC50", "observed-measurement": "≥ 7.00"}

Lab book: pIC50 of N#Cc1cc(-c2cc(NC(=O)c3cc(F)cc(C(F)(F)F)c3)c3c(c2)C(=O)N[C@@H]3c2cc(F)ccc2Cl)cn2ncnc12 noted as 6.00 to 6.30

Lab book: pIC50 of O=C1NC(c2cc(F)ccc2Cl)c2c(NC(=O)N3CCC4C3[C@H]4C(F)(F)F)cccc21 (single isomer, unassigned) noted as 4.00 to 5.00

Lab book: pIC50 of O=C(Nc1cc(-c2ccn[nH]2)cc2c1[C@@H](c1cc(F)ccc1Cl)NC2=O)c1cc(F)cc(C(F)(F)F)c1 noted as 5.00 to 6.00

Lab book: pIC50 of O=C1N[C@H](c2cc(F)ccc2Cl)c2c(NC(=O)c3nsc4ccccc34)cc(-c3ccc4ncnn4c3)cc21 (stereo in doubt) noted as 5.00 to 6.00

###

# target: H1047R PIK3CA enzyme (Homo sapiens, UniProt P42336, H1047R)
# assay-notes: ADP-Glo Biochemical PIK3CA Kinase Assay
quantity-kind: IC50

{"compound": "O=C(Nc1cc(NC(=O)C2CCOCC2)cc2c1C(c1cc(F)ccc1Cl)NC2=O)c1cc(F)cc(C(F)(F)F)c1 (centres unmarked)", "IC50": "≤ 0.1 µM"}
{"compound": "COc1cc(C(=O)Nc2cc(Br)cc3c2C(c2cc(F)ccc2Cl)NC3=O)ccc1F (centres unmarked)", "IC50": "1 to 10 µM"}
{"compound": "O=C1NC(c2cc(F)ccc2Cl)c2c(Nc3nncc4ccccc34)cc(Br)cc21 (centres unmarked)", "IC50": "10 to 100 µM"}
{"compound": "O=C1NCc2c(NC(=O)c3csc4ccccc34)cccc21", "IC50": "10 to 100 µM"}

Lab book: IC50 of Cc1c(F)cccc1C1NC(=O)c2cc(Br)cc(NC(=O)c3cc(F)cc(C(F)(F)F)c3)c21 (centres unmarked) noted as 0.1 to 0.5 µM

Lab book: IC50 of O=C1N[C@H](c2cc(F)ccc2Cl)c2c1cc(-c1ccc3ncnn3c1)cc2S(=O)(=O)Cc1ccccc1 (single isomer, unassigned) noted as 1 to 10 µM
